System: HS578T
Test: Cell proliferation Ex.3
Assay type: cell-based
Conditions: Homo sapiens, Hs-578T, 72 h

item.smiles	IC50
C#C[C@]1(CO)O[C@@H](n2cc(F)c(N)nc2=O)C[C@@H]1O	> 10 µM

---

Test system: A2780
Assay: Cell proliferation CellTiterGlo Ex.2
Type: cell-based
Settings: Homo sapiens; A2780 (Ovary), 72 h
pIC50: −log10 of the molar value.

item.smiles	target.system	pIC50
C#C[C@]1(CO)O[C@@H](n2cnc3c(=O)[nH]c(N)nc32)C[C@@H]1O	A2780	5.34

---

Tested on: U87MG
Test: Cell proliferation CellTiterGlo Ex.2
Type: cell-based
Conditions: Homo sapiens, U-87 MG; U87MG (Brain), 72 h
quantity.measured: IC50 (µM)

item.smiles	quantity.measured	reported.measurement
C#C[C@]1(CO)O[C@@H](n2cnc3c(=O)[nH]c(N)nc32)C[C@@H]1O	IC50	6.39

---

# maps each entry to its pIC50
Tested on: cancer cell lines
Assay: Cancer cell proliferation activity of representative nucleosides, CellTiterGlo 72 h (Example 7, Tables 8 and 9)
Format: cell-based
Conditions: Homo sapiens, Granta-519, 72 h, GRANTA-519, hematological, 72 h
pIC50: −log10 of the molar value.

item.smiles	target.system	pIC50
C[C@]1(CO)O[C@@H](n2ccc(N)nc2=O)C[C@@H]1O	cancer cell lines	7.10
C#C[C@]1(CO)O[C@@H](n2cc(F)c(=O)[nH]c2=O)C[C@@H]1O	cancer cell lines	6.46
N#C[C@]1(CO)O[C@@H](n2ccc(N)nc2=O)C[C@@H]1O	cancer cell lines	7.10
CC[C@]1(CO)O[C@@H](n2ccc(N)nc2=O)C[C@@H]1O	cancer cell lines	5.79
C#C[C@]1(CO)O[C@@H](n2cnc3c(=O)[nH]c(N)nc32)C[C@@H]1O	cancer cell lines	5.61

---

System: NCI-H292
Assay: Cell proliferation CellTiterGlo Ex.2
Format: cell-based
Details: Homo sapiens; NCI-H292 (Lung), 72 h
pIC50: −log10 of the molar value.
quantity.measured: pIC50

compound	reported.measurement
C#C[C@]1(CO)O[C@@H](n2cnc3c(=O)[nH]c(N)nc32)C[C@@H]1O [compound 13]	5.07

---

System: TE671
Test: Cell proliferation Ex.3
Format: cell-based
Details: Homo sapiens, TE-671; TE671, 168 h
pIC50: −log10 of the molar value.

item.smiles	pIC50
C#C[C@]1(CO)O[C@@H](n2cc(F)c(N)nc2=O)C[C@@H]1O	< 5.00

---

Tested on: NCI-H1838
Test: Cell proliferation CellTiterGlo Ex.2
Format: cell-based
Conditions: Homo sapiens; NCI-H1838 (Lung), 72 h
pIC50: −log10 of the molar value.

item.smiles	pIC50
C#C[C@]1(CO)O[C@@H](n2cnc3c(=O)[nH]c(N)nc32)C[C@@H]1O	5.12

---

Tested on: cancer cell lines
Test: Cancer cell proliferation activity of representative nucleosides, CellTiterGlo 72 h (Example 7, Tables 8 and 9)
Type: cell-based
Conditions: Homo sapiens, MHH-ES-1, 72 h, MHHES1, bone, 72 h
pIC50: −log10 of the molar value.

item.smiles	value.modifier	pIC50
C#C[C@]1(CO)O[C@@H](n2cc(F)c(=O)[nH]c2=O)C[C@@H]1O	<	4.30
CC[C@]1(CO)O[C@@H](n2cnc3c(N)nc(N)nc32)C[C@@H]1O	=	5.41
CC[C@]1(CO)O[C@@H](n2ccc(N)nc2=O)C[C@@H]1O	<	4.30
C#C[C@]1(CO)O[C@@H](n2cnc3c(=O)[nH]c(N)nc32)C[C@@H]1O	<	4.30
C#C[C@]1(CO)O[C@@H](n2cc(F)c(N)nc2=O)C[C@@H]1O	=	5.82
N#C[C@]1(CO)O[C@@H](n2ccc(N)nc2=O)C[C@@H]1O	=	6.68
C[C@]1(CO)O[C@@H](n2ccc(N)nc2=O)C[C@@H]1O	=	6.14
C#C[C@]1(CO)O[C@@H](n2ccc(N)nc2=O)C[C@@H]1O	=	5.69
